These measurements were taken from ChEMBL document CHEMBL4715736.

Below is a list of entries, each paired with its recorded growth at 0.1 µM value.
# Test system: NCI/ADR-RES
# experimental details: Growth inhibition of human NCI/ADR-RES cells assessed as cell growth at 0.1 uM incubated for 48 hrs by sulforhodamine B assay relative to control
# Format: functional
# condition info: read-out: Activity
The answer is to be given in %; state only the numeric part.

Example entries begin here.
[[record]]
cpd_smiles = "CCc1ccccc1NC(=O)c1sc2nc3c(cc2c1N)C(=O)CCC3"
unit = "%"
meas_value = 88

[[record]]
cpd_smiles = "CN1CCc2nc3sc(C(N)=O)c(N)c3c(-c3cccs3)c2C1"
unit = "%"
meas_value = 96


Field growth at 0.1 µM (entry `COc1cccc(NC(=O)c2sc3nc4c(cc3c2N)CN(Cc2ccccc2)CC4)c1` ) reads 97

Field growth at 0.1 µM (entry `Cc1cccc(NC(=O)c2sc3nc4c(cc3c2N)C(=O)CCC4)c1` ) reads 69

Field growth at 0.1 µM (entry `CCc1cccc(C)c1NC(=O)c1sc2nc3c(cc2c1N)C(=O)CCC3` ) reads 99

Field growth at 0.1 µM (entry `Cc1ccc(NC(=O)c2sc3nc4c(cc3c2N)C(=O)CCC4)cc1C` ) reads 102

Field growth at 0.1 µM (entry `Cc1cc(C)c(NC(=O)c2sc3nc4c(cc3c2N)CN(Cc2ccccc2)CC4)c(C)c1` ) reads 100

Field growth at 0.1 µM (entry `Nc1c(C(=O)Nc2ccccc2)sc2nc3c(cc12)CN(Cc1ccccc1)CC3` ) reads 101

* * *

Below is a list of entries, each paired with its recorded growth at 0.1 µM value.
# Tested on: MDA-MB-231
# experimental details: Growth inhibition of human MDA-MB-231 cells assessed as cell growth at 0.1 uM incubated for 48 hrs by sulforhodamine B assay relative to control
# Type: functional
# condition info: read-out: Activity
The answer is to be given in %; state only the numeric part.

[[record]]
cpd_smiles = "Cc1cc(C)c(NC(=O)c2sc3nc4c(cc3c2N)CN(Cc2ccccc2)CC4)c(C)c1"
meas_value = 101


Field growth at 0.1 µM (entry `COc1cccc(NC(=O)c2sc3nc4c(cc3c2N)CN(Cc2ccccc2)CC4)c1` ) reads 98

Field growth at 0.1 µM (entry `CN1CCc2nc3sc(C(N)=O)c(N)c3c(-c3cccs3)c2C1` ) reads 109

Field growth at 0.1 µM (entry `CCc1ccccc1NC(=O)c1sc2nc3c(cc2c1N)C(=O)CCC3` ) reads 90

Field growth at 0.1 µM (entry `Cc1cccc(NC(=O)c2sc3nc4c(cc3c2N)C(=O)CCC4)c1` ) reads 76

* * *

# System: Hs-578T
# experimental details: Growth inhibition of human Hs-578T cells incubated for 48 hrs by sulforhodamine B assay
# Type: functional
Quick rule for you: GI50 under 0.4 µM gets 1, anything else gets -1.

Query string: # strict comparison: is reported GI50 < 0.4 µM? input = `Cc1cccc(NC(=O)c2sc3nc4c(cc3c2N)C(=O)CCC4)c1`
Result string: 1

Query string: # strict comparison: is reported GI50 < 0.4 µM? input = `COc1cccc(NC(=O)c2sc3nc4c(cc3c2N)CN(Cc2ccccc2)CC4)c1`
Result string: -1

Query string: # strict comparison: is reported GI50 < 0.4 µM? input = `Nc1c(C(=O)Nc2ccccc2)sc2nc3c(cc12)CN(Cc1ccccc1)CC3`
Result string: -1

Query string: # strict comparison: is reported GI50 < 0.4 µM? input = `Cc1ccc(NC(=O)c2sc3nc4c(cc3c2N)C(=O)CCC4)cc1C`
Result string: 1

Query string: # strict comparison: is reported GI50 < 0.4 µM? input = `Cc1cc(C)c(NC(=O)c2sc3nc4c(cc3c2N)CN(Cc2ccccc2)CC4)c(C)c1`
Result string: -1

Query string: # strict comparison: is reported GI50 < 0.4 µM? input = `CN1CCc2nc3sc(C(N)=O)c(N)c3c(-c3cccs3)c2C1`
Result string: -1

Query string: # strict comparison: is reported GI50 < 0.4 µM? input = `CCc1ccccc1NC(=O)c1sc2nc3c(cc2c1N)C(=O)CCC3`
Result string: 1

* * *

Below is a list of entries, each paired with its recorded growth at 10 µM value.
# Tested on: SK-MEL-2
# experimental details: Growth inhibition of human SK-MEL-2 cells assessed as cell growth at 10 uM incubated for 48 hrs by sulforhodamine B assay relative to control
# Assay type: functional
# condition info: read-out: Activity
The answer is to be given in %; state only the numeric part.

Example entries begin here.
[[record]]
cpd_smiles = "COc1cccc(NC(=O)c2sc3nc4c(cc3c2N)CN(Cc2ccccc2)CC4)c1"
measurement_name = "growth at 10 µM"
unit = "%"
meas_value = 51

[[record]]
cpd_smiles = "O=S(=O)(c1ccc(Br)cc1)n1ccc(-c2ccc(OCCCF)cc2)n1"
measurement_name = "growth at 10 µM"
unit = "%"
meas_value = 96.4

[[record]]
cpd_smiles = "Cc1cccc(NC(=O)c2sc3nc4c(cc3c2N)C(=O)CCC4)c1"
measurement_name = "growth at 10 µM"
unit = "%"
meas_value = 13


Field growth at 10 µM (entry `CN1CCc2nc3sc(C(N)=O)c(N)c3c(-c3cccs3)c2C1` ) reads -28

Field growth at 10 µM (entry `COc1ccc(S(=O)(=O)n2ccc(-c3ccc4c(c3)CCC(C)(C)O4)n2)cc1` ) reads 84.4

Field growth at 10 µM (entry `COc1ccc(S(=O)(=O)n2ccc(-c3ccc4c(c3)CCC(C)(C)O4)n2)cc1OC` ) reads 56.1

* * *

# Tested on: NCI-H322M
# experimental details: Growth inhibition of human NCI-H322M cells assessed as cell growth at 1 uM incubated for 48 hrs by sulforhodamine B assay relative to control
# Assay type: functional
# condition info: read-out: Activity
measurement name: growth at 1 µM (%)
The answer is to be given in %; state only the numeric part.

[[record]]
cpd_smiles = "CN1CCc2nc3sc(C(N)=O)c(N)c3c(-c3cccs3)c2C1"
meas_value = 99

[[record]]
cpd_smiles = "Nc1c(C(=O)Nc2ccccc2)sc2nc3c(cc12)CN(Cc1ccccc1)CC3"
meas_value = 91


Turning now to a further record.
Field growth at 1 µM (entry `Cc1cc(C)c(NC(=O)c2sc3nc4c(cc3c2N)CN(Cc2ccccc2)CC4)c(C)c1` ) reads 102

* * *

Below is a list of entries, each paired with its recorded growth at 10 µM value.
# Tested on: HL-60(TB)
# experimental details: Growth inhibition of human HL-60(TB) cells assessed as cell growth at 10 uM incubated for 48 hrs by sulforhodamine B assay relative to control
# Assay type: functional
# condition info: read-out: Activity
The answer is to be given in %; state only the numeric part.

[[record]]
cpd_smiles = "Cc1cc(C)cc(S(=O)(=O)n2ccc(-c3ccc4c(c3)CCC(C)(C)O4)n2)c1"
experimental_target = "HL-60(TB)"
unit = "%"
meas_value = 99.8


Field growth at 10 µM (entry `CC1(C)CCc2cc(-c3ccn(S(=O)(=O)c4ccc(C(C)(C)C)cc4)n3)ccc2O1` ) reads 111

Field growth at 10 µM (entry `COc1ccc(-c2ccn(S(=O)(=O)c3ccc(C)cc3)n2)cc1` ) reads 114

Field growth at 10 µM (entry `Nc1c(C(=O)N(c2ccccc2)c2ccccc2)sc2nc3c(cc12)C(=O)CCC3` ) reads 105

Field growth at 10 µM (entry `CC1(C)CCc2cc(-c3ccn(S(=O)(=O)c4ccc(C(F)(F)F)cc4)n3)ccc2O1` ) reads 117

* * *

Below is a list of entries, each paired with its recorded growth at 0.01 µM value.
# Test system: Malme-3M
# experimental details: Growth inhibition of human Malme-3M cells assessed as cell growth at 0.01 uM incubated for 48 hrs by sulforhodamine B assay relative to control
# Type: functional
# condition info: read-out: Activity
The answer is to be given in %; state only the numeric part.

Example entries begin here.
[[record]]
cpd_smiles = "Nc1c(C(=O)Nc2ccccc2)sc2nc3c(cc12)CN(Cc1ccccc1)CC3"
experimental_target = "Malme-3M"
measurement_name = "growth at 0.01 µM"
meas_value = 87

[[record]]
cpd_smiles = "COc1cccc(NC(=O)c2sc3nc4c(cc3c2N)CN(Cc2ccccc2)CC4)c1"
experimental_target = "Malme-3M"
measurement_name = "growth at 0.01 µM"
meas_value = 97

[[record]]
cpd_smiles = "Cc1cc(C)c(NC(=O)c2sc3nc4c(cc3c2N)CN(Cc2ccccc2)CC4)c(C)c1"
experimental_target = "Malme-3M"
measurement_name = "growth at 0.01 µM"
meas_value = 106

[[record]]
cpd_smiles = "Cc1cccc(NC(=O)c2sc3nc4c(cc3c2N)C(=O)CCC4)c1"
experimental_target = "Malme-3M"
measurement_name = "growth at 0.01 µM"
meas_value = 91


Turning now to a further record.
Field growth at 0.01 µM (entry `CCc1cccc(C)c1NC(=O)c1sc2nc3c(cc2c1N)C(=O)CCC3` ) reads 96
